Below, each of the compounds is paired with its reported GFP fluorescence, lower = active (kMESF (background-subtracted)) value.
RUN_DESCRIPTION: TOR pathway RPL19A-GFP modulators, concentration series – cell-based, S. cerevisiae, flow cytometry, MLPCN hits, dose response (AID 2740);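 also: background is signal of the same compound in parental non-GFP s288c yeast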
CONDITION_DESCRIPTION: S. cerevisiae RPL19A-GFP strain, flow cytometry fluorescence, 3 h; at 33 µM (top of the series)
QUANTITY: GFP fluorescence, lower = active (kMESF (background-subtracted))

COMPOUND: CC1=NOC(=O)/C1=C\c1ccc(-c2cc(Cl)ccc2Cl)o1
RESULT: 39
//
COMPOUND: Fc1cccc(Nc2ncnc3c2cnn3-c2ccccc2)c1
RESULT: 35.1
//
COMPOUND: O=c1[nH]c(-c2ccccn2)nc(C(F)(F)F)c1Br
RESULT: 30.1
//
COMPOUND: Oc1c(I)cc(Cl)c2cccnc12
RESULT: 25.8
//
COMPOUND: N#Cc1cc([N+](=O)[O-])c(-n2nnc3ccccc32)c([N+](=O)[O-])c1
RESULT: 43.3
//
COMPOUND: N=C1/C(=C\c2coc3ccccc3c2=O)C(=O)N=C2SC(c3ccncc3)=NN12
RESULT: 25.5
//
COMPOUND: O=C1c2cccc3c([N+](=O)[O-])ccc(c23)C(=O)N1O
RESULT: 49.9
//
COMPOUND: CCCOc1ccc(C(=O)NNC(=S)NC(=O)c2ccccc2)cc1
RESULT: 45.7
//
COMPOUND: COc1ccc(N=Cc2nc(-c3ccccc3)oc2OC(=O)c2ccccc2)cc1
RESULT: 46.2
//
COMPOUND: COc1ccc([C@]2(C(C)C)ON(c3ccccc3C(F)(F)F)C2=O)cc1
RESULT: 46
//
COMPOUND: O=C1ON=C(c2ccc(Cl)cc2)/C1=C/c1ccc(O)cc1
RESULT: 40.8
//
COMPOUND: CCOc1ccc(C(Nc2cccnc2)c2cc(Cl)c3cccnc3c2O)cc1 (stereo not given)
RESULT: 28.3
//
COMPOUND: O=C(Oc1cccc2cccnc12)c1ccc(Br)o1
RESULT: 44.1
//
COMPOUND: Oc1c(I)cc(I)c2cccnc12
RESULT: 23
//
COMPOUND: Cc1cc(NC(c2ccc(Cl)cc2)c2ccc3cccnc3c2O)no1 (stereo not given)
RESULT: 39.3
//
COMPOUND: NC(=O)COc1ccc(C(=O)/C=C2/C(=O)Nc3ccccc32)cc1
RESULT: 40.3
//
COMPOUND: O=[N+]([O-])c1cc(O)c2ncccc2c1
RESULT: 45
//
COMPOUND: CC(=O)N(\C=C/C=C/C=C1\Sc2ccccc2C1=O)c1ccccc1
RESULT: 56.1
//
COMPOUND: COc1ccc2c(c1)c(/C=C/c1cc[n+](C)cc1)cn2C
RESULT: 40
//
COMPOUND: Cc1ccc(NC(=O)ON=C2CCCC2)cc1
RESULT: 39.3
//
COMPOUND: COc1ccc(N2C(=O)C(Cl)=C(Oc3cccc(OC)c3)C2=O)cc1
RESULT: 45.6
//
COMPOUND: O=C1C(Cl)=C(Nc2ccccc2O)C(=O)N1c1ccccc1
RESULT: 43.6
//
COMPOUND: Cc1[nH]n(-c2ccccc2)c(=O)c1C(c1ccccc1[N+](=O)[O-])C(C#N)C#N (stereo not given)
RESULT: 24.7
//
COMPOUND: Cc1cccc(N=C2NC(=O)/C(=C/C=C/c3ccco3)S2)c1C
RESULT: 34.7
//
COMPOUND: O=c1c2cc(Cl)ccc2nc(-c2ccc([N+](=O)[O-])cc2)n1O
RESULT: 14
//
COMPOUND: O=C1ON=C(c2ccccc2)/C1=C\c1ccco1
RESULT: 28.9
//
COMPOUND: O=C1c2ccccc2C(=O)N1OS(=O)(=O)c1ccc(F)cc1
RESULT: 37.2
//
COMPOUND: O=C(Nc1nnc(-c2ccc(Cl)cc2)o1)c1ccccc1Br
RESULT: 37
//
COMPOUND: COCCN1C(=O)/C(=C/c2ccc(N3CCCC3)cc2C)SC1=S
RESULT: 43
//
COMPOUND: O=C(/C=C/c1cc(Br)ccc1O)c1ccco1
RESULT: 33.5
//
COMPOUND: COc1ccc(C(=O)/C=C2/C(=O)Nc3ccccc32)c(OC)c1
RESULT: 37.3
//
COMPOUND: Cc1cc(C)c(OCC(=O)Nc2nc(-c3ccccn3)cs2)c(C)c1
RESULT: 39.3
//
COMPOUND: CC(=O)[C@]1(O)Cc2c(O)c3c(c(O)c2[C@@H](O[C@H]2C[C@H](N)[C@H](O)[C@H](C)O2)C1)C(=O)c1ccccc1C3=O
RESULT: 42
//
COMPOUND: O=C(/C=C/c1ccc(Cl)c([N+](=O)[O-])c1)c1cccnc1
RESULT: 36.9
//
COMPOUND: N/C(=N\OC(=O)c1ccc(Cl)cc1Cl)c1ccccc1
RESULT: 39.4
//
COMPOUND: CC[C@H](C)/C=C(C)/C=C/C1=CC2=C(Cl)C(=O)[C@@](C)(OC(C)=O)C(=O)C2=CO1
RESULT: 4.51
//
COMPOUND: O=C1NC(=O)N(CCc2ccc(F)cc2)C(=O)/C1=C/c1cccs1
RESULT: 38.2
//
COMPOUND: CCC(=O)Nc1ccc(NC(=O)c2cc3ccccc3o2)c(OC)c1
RESULT: 40.4
//
COMPOUND: O=C(Cc1ccc(Cl)cc1)NNC(=S)NC(=O)c1cccs1
RESULT: 45.9
//
COMPOUND: CC1=C/C(=N\OS(=O)(=O)c2ccccc2)C(C(C)C)=CC1=O
RESULT: 21.4
//
COMPOUND: Cc1ccc(-c2nc(C)sc2CC(=O)Nc2nnc(C)s2)cc1
RESULT: 37.9
//
COMPOUND: Cc1[nH]n(-c2ncc(-c3ccccc3)s2)c(=O)c1C(c1ccc(Cl)cc1)C(C#N)C#N (stereo not given)
RESULT: 42
//
COMPOUND: O=C(COc1c(Br)cc(Br)c2cccnc12)N1CCc2ccccc2C1
RESULT: 45.4
//
COMPOUND: COc1cccc2c(=O)c(C(=O)NCc3cccs3)c[nH]c12
RESULT: 40.5
//
COMPOUND: CC(C)[C@@]1(c2ccc(Cl)cc2)ON(c2ccccc2C(F)(F)F)C1=O
RESULT: 39.1

Measured values drawn from PubChem BioAssay AID2740 for this set.
